system tested: Sphingosine 1-phosphate receptor 1 (Homo sapiens)
test summary: direct activation of human S1P1 – cell-based, agonist mode, 60K MLSMR set, dose response (AID 468)
protocol conditions: inactive by the depositor's call
assay readout: EC50 (µM)

> print(dat)
                                    compound  recorded.measurement
 1  Cc1nn(Cc2ccc(Cl)cc2)c(C)c1NC(=O)c1cc(-c2ccco2)on1                  13.8
 2             c1ccc(CSc2nnc(-c3cccs3)o2)cc1                  20.9
 3   Cc1cccc(-n2ncc3c(N(C)C4CCCCC4)ncnc32)c1                    95
 4   Cc1ccc(-c2nc(COC(=O)c3c(C)noc3C)cs2)cc1                  26.2
 5     CCOC(=O)c1sc2nc(NC(=O)C(C)(C)C)sc2c1C                    12
 6  CCOc1nc(-c2ccccc2)ccc1-c1noc(-c2ccco2)n1                  16.8
 7  Clc1ccc(-c2nc3nc4ccccc4nc3n2Cc2ccco2)cc1                  25.3
 8            Cc1cccc(OCCCCc2c(C)n[nH]c2C)c1                  11.5
 9  CCc1ccc(-c2nc(CSCC(=O)N3CCN(c4ccccn4)CC3)c(C)o2)cc1                  11.8
10  COc1ccc(S(=O)(=O)Cc2ccc(C(=O)N3CCN(c4cccc(C)c4C)CC3)o2)cc1                    14
11  CCN(CC)c1ccc(-n2c(C)c(C(C)=O)c(C(C)=O)c2C)cc1                  11.4
12          CC(C)OCCCNc1ncnc2c1[nH]c1ccccc12                    14
13  CC(C)Cn1c(=O)c(C(=O)Nc2ccccc2S(N)(=O)=O)c(O)c2ccccc21                  13.4
14  COc1ccc(-n2c(C)c(C(C)=O)c3cc(O)ccc32)cc1                  15.6
15  Cc1ccc2nc(NC(=O)CSc3nc4c(c(=O)n3C)SC(C)C4)sc2c1 (stereo unspecified)                  13.2
16  O=C(c1ccco1)N1CCN(c2ncnc3c2[nH]c2ccc(Br)cc23)CC1                  13.9
17    CC/N=c1\sc(C(=O)NCCc2ccccc2)cc(=O)n1CC                  22.5
18      CCOC(=O)c1ccc2nc(NC(=O)c3ccco3)sc2c1                  16.3
19  CCCOC(=O)c1[nH]c2c(c1C)C(=O)CC(c1cc(OC)c(OC)c(OC)c1)C2 (stereo unspecified)                  10.9
20  Cc1ccc(Cl)cc1N1CCN(C(=O)C2CCN(c3nnc(-n4cccc4)s3)CC2)CC1                  34.4
21        CC(C)Cc1cc(C(=O)Nc2cc(Br)ccc2O)no1                  20.2

* * *

The following molecules are shown together with reported pEC50 values.
system tested: Sphingosine 1-phosphate receptor 1 (Homo sapiens)
test summary: direct activation of human S1P1 – cell-based, agonist mode, 60K MLSMR set, dose response (AID 468)
protocol conditions: inactive by the depositor's call
pEC50: −log10 of the molar value.
assay readout: pEC50

> print(dat)
                                    molecule  recorded.measurement
 1  CCCC(=O)c1ccc(N2CCN(C(=O)c3ccccc3Br)CC2)c(F)c1                  4.93
 2      Clc1ccc(CSc2nnc(-c3ccncc3)o2)c(Cl)c1                  4.38
 3   Cc1cc(C(=O)COC(=O)c2csc3c2CCCC3)c(C)n1C                  4.73
 4        Nn1c(Nc2ccccc2)nc2sc3c(c2c1=O)CCC3                  4.79
 5   CCCCOc1ccc(S(=O)(=O)Nc2cc(OC)ccc2OC)cc1                  4.89
 6  CC(C)C(c1nnnn1Cc1ccccc1)N(Cc1ccco1)Cc1cccs1 (stereo unspecified)                  4.29
 7        Oc1nnc(Sc2ncnc3sccc23)n1CCc1ccccc1                  4.77
 8   Nc1c(C(=O)NC2CCCC2)sc2nc(-c3cccs3)ccc12                  4.84
 9  COc1cccc(-c2csc(N3CCN(CC(=O)Nc4ccc5c(c4)OCO5)CC3)n2)c1                  4.77
10        CCOc1cc(-c2noc(-c3cccnc3)n2)ccc1OC                  4.73
11  Cc1n[nH]c(C)c1N1C(=O)c2cccc3c(N4CCCCCC4)ccc(c23)C1=O                  4.86

* * *

Listed here are compounds together with their documented EC50.
system tested: Sphingosine 1-phosphate receptor 1 (Homo sapiens, UniProt P21453)
Sequence (P21453 whole entry): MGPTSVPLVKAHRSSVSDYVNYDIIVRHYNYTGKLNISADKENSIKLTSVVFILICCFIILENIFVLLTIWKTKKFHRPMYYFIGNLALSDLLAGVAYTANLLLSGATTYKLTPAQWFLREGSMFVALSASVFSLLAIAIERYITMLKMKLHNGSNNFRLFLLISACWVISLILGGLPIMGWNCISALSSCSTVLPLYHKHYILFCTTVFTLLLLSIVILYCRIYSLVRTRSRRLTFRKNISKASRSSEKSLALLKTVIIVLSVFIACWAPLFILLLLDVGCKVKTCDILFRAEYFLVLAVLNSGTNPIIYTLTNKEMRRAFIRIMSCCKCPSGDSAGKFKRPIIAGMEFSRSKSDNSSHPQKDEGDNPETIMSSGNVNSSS
test summary: direct activation of human S1P1 – cell-based, agonist mode, 60K MLSMR set, dose response (AID 468)
assay readout: EC50

> print(dat)
                                smiles.data  assay.readout  recorded.measurement
1  Cc1cc(C=c2sc3nc4ccccc4n3c2=O)c(C)n1-c1ccccn1           EC50              0.132 µM
2  c1ccc(CN2CCN(c3ncnc4c3[nH]c3ccccc34)CC2)cc1           EC50               4.18 µM
3           Cc1cccc(NC(=O)Nc2ccc(C#N)cc2)n1           EC50               > 30 µM

* * *

// pEC50 lookup, one value per entry
system tested: Sphingosine 1-phosphate receptor 1 (Homo sapiens)
test summary: direct activation of human S1P1 – cell-based, agonist mode, 60K MLSMR set, dose response (AID 468)
pEC50: −log10 of the molar value.
assay readout: pEC50

> print(dat)
                                    compound  assay.readout  operator.symbol  recorded.measurement
 1    CN(C)c1oc(-c2ccc(OCc3ccccc3)cc2)nc1C#N          pEC50                =                  5.49
 2  COc1cc(C(=O)N2CCN(S(=O)(=O)c3ccc(C)cc3)CC2)ccc1OCc1c(C)noc1C [MLS000056221]          pEC50                <                  4.02
 3  COc1ccccc1Oc1ccc2c(c1)C(=O)N(c1cccc(O)c1)C2=O          pEC50                =                  5.63
 4          COc1ccc(-c2noc(-c3ccccc3F)n2)cc1          pEC50                =                  5.13
 5          CCCS(=O)(=O)c1nnnn1-c1cccc(OC)c1          pEC50                =                  5.55
 6      Cc1nnc(SC(=O)N2c3ccccc3Sc3ccccc32)s1          pEC50                =                  5.45
 7    Cc1ccc(C(C)C)c(OCc2ccc(-c3nnco3)cc2)c1          pEC50                =                  5.61
 8  COc1ccc(CCNc2ncnc3c2oc2ccccc23)cc1OC [MLS000041708]          pEC50                =                  6.27
 9  Nc1nonc1C(=O)NCCNCc1cc(Br)ccc1OCc1ccc(F)cc1          pEC50                =                  5.16
10  CC(=O)c1ccc(NC(=O)N2CCN(c3cccc(Cl)c3)CC2)cc1          pEC50                =                  5.01
11  Cc1cc(C(=O)CSc2nc3ccccc3c(=O)n2C)c(C)n1Cc1ccc2c(c1)OCO2          pEC50                =                  5.27
12      COc1ccc(-c2nc(-c3ccc(Br)o3)no2)cc1OC          pEC50                =                  5.10
13        CC(C)COC(=O)NCCOC(=O)Nc1cccc(Cl)c1          pEC50                =                  5.21
